target: UniProt:P09917; experiment: Inhibition of 5-LOX in human Neutrophil at 10 uM preincubated with compound for 15 mins followed by A23187 addition measured after 10 mins by RP-HPLC analysis relative to control; format: cell-based; details: time 25.0 min
Sequence (P09917 whole entry): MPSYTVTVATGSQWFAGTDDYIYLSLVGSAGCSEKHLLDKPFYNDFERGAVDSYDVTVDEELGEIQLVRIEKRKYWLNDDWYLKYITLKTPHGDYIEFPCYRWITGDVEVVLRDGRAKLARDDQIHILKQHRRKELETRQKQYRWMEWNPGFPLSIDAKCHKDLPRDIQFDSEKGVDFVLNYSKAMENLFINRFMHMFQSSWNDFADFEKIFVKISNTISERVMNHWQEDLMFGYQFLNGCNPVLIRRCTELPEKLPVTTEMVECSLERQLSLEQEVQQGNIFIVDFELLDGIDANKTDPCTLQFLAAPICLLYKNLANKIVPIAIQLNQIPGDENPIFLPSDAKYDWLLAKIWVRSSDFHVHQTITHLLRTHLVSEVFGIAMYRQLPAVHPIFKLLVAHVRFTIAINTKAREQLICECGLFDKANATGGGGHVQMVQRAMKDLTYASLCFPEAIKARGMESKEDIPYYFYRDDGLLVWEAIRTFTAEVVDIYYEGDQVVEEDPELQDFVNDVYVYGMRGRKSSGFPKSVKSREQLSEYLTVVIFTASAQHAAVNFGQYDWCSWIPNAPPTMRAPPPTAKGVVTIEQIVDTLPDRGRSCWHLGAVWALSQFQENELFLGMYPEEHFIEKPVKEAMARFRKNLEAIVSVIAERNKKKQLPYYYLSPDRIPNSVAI
Calls of active or inactive are those of the source. The calls are words filed in the database; no cut-off is given here.
endpointName: inhibition

O=C1C(=O)C(CCc2ccccc2)C(=O)/C1=C/c1ccccc1 (stereo unspecified)	inactive
Nc1nc(N)c2cc([S+]([O-])c3ccc4ccccc4c3)ccc2n1 (stereo unspecified)	37%
Cc1ccn(C(=O)C2=Cc3ccccc3OC2)c(=N)c1	inactive
O=C(O)c1cnc2cc(OCCc3ccc(F)cc3)ccc2c1O	inactive
Oc1ccc(CCC2CCC(c3ccc(O)cc3)CO2)cc1 (stereo unspecified)	> 50%
CC(=O)c1cccc2cc(CC(=O)c3ccccc3)c(=O)oc12	inactive
O=C(O)c1ccccc1C(=O)OC1CCc2ccccc2C1 (stereo unspecified)	inactive
O=C(/C=C/c1ccccc1)CCc1c(O)c2ccccc2oc1=O	inactive
COC(=O)c1ccc(NCc2cc(O)c3ccccc3c2O)cc1	> 50%
NS(=O)(=O)c1ccc(NCc2cnc3ccccc3c2)cc1	inactive

Please look at the following compound next.
Send back UniProt:P09917 inhibition of N=C1OC(c2c[nH]c3ccc(OCc4ccccc4)cc23)C(O)=C1O (stereo unspecified) only. 37%

* * *

target: Bifunctional epoxide hydrolase 2 (Homo sapiens) (UniProt P34913); assay: Inhibition of human sEH assessed as enzyme remaining activity at 10 uM relative to control
endpointName: Activity (%)
Numeric answer only, unit % assumed.

CC(=O)c1cccc2cc(CC(=O)c3ccccc3)c(=O)oc12	79.7

Note down Activity recorded for O=C(O)c1ccccc1C(=O)OC1CCc2ccccc2C1 (stereo unspecified) 87.4

Supply reported Activity belonging to this compound: Nc1nc(N)c2cc([S+]([O-])c3ccc4ccccc4c3)ccc2n1 (stereo unspecified) 93.9

Kindly indicate its recorded Activity. Item: Cc1cc(=O)oc(C)c1C(=O)Oc1ccc2ccccc2c1 75.7

Give Activity for O=C(c1nc2ccc(Cl)cc2nc1O)C(O)c1ccc2c(c1)OCO2 (stereo unspecified) 93.8

Input N=C1OC(c2c[nH]c3ccc(OCc4ccccc4)cc23)C(O)=C1O (stereo unspecified) , output reported Activity. 86.7

* * *

Molecular target: Bifunctional epoxide hydrolase 2 (Homo sapiens)
Sequence (whole entry): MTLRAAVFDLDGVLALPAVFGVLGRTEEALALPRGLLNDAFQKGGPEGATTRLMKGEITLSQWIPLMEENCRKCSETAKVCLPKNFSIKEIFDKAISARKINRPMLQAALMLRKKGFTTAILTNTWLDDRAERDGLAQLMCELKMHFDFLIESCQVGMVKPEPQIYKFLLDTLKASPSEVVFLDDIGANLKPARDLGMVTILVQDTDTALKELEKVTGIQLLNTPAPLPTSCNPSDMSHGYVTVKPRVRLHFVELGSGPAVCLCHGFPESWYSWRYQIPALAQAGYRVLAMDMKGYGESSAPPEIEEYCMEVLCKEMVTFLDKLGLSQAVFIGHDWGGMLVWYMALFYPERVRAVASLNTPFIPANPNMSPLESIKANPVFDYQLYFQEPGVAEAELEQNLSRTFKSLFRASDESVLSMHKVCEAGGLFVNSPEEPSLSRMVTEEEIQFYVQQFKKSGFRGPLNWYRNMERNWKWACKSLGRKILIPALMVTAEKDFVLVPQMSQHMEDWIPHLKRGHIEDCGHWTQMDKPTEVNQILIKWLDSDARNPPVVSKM
Assay: Inhibition of human sEH assessed as enzyme remaining activity at 10 uM relative to control
endpointName: Activity

Quote Activity reported for O=C(NCc1ccco1)Nc1cccc(-c2ccccc2)c1 please. 91.4%

Return the recorded Activity value; entry: Oc1nc(Cc2ccc3ccccc3n2)cc(-c2ccccc2)n1 91.6%

Could you please provide reported Activity for Cc1ccc(Nc2nnc(-c3ccc4c(c3)OCO4)o2)c(C)c1 ? Thanks! 90.6%

Return value of Activity for input O=C(/C=C/c1ccccc1)NCCC1(O)C(=O)Nc2ccccc21 (stereo not given) , no commentary. 88.2%

Find the measured Activity of N=c1c2c(ncn1Cc1ccccc1)CCN(Cc1ccccc1)C2 and report it. 91.6%

Given Cn1c(=O)c2nc(CCCc3nc4ccccc4[nH]3)[nH]c2n(C)c1=O , respond with its Activity. 92.7%

In one line, give reported Activity of the entry O=C(O)c1cnc2cc(OCCc3ccc(F)cc3)ccc2c1O . 72.5%

Input CC(=O)NC(CC(=O)Nc1cccc2c1Cc1ccccc1-2)C(=O)O (stereo not given) , output reported Activity. 81%

Give the value of Activity reported for the following: O=C(/C=C/c1ccccc1)CCc1c(O)c2ccccc2oc1=O 108%

Identify measured Activity associated with O=C1C(C(O)c2ccccc2)CCCC1C(O)c1ccccc1 (stereo not given) 132%

* * *

target: Polyunsaturated fatty acid 5-lipoxygenase (Homo sapiens); assay: Inhibition of human recombinant 5-LOX expressed in Escherichia coli BL21(DE3) assessed as enzyme remaining activity at 10 uM using arachidonic acid as substrate preincubated with compound for 15 mins followed by substrate and CaCl2 addition measured after 10 mins by RP-HPLC analysis relative to control; settings: time 25.0 min
In this section we review reported Activity values for a set of molecules.
# value in %; strip the unit string

For orientation, consider the following solved cases.
O=C1C(=O)C(CCc2ccccc2)C(=O)/C1=C/c1ccccc1 (configuration not stated)	110
O=C(NCc1ccco1)Nc1cccc(-c2ccccc2)c1	96.4
O=C(O)c1cnc2cc(OCCc3ccc(F)cc3)ccc2c1O	66.9

State Activity on Polyunsaturated fatty acid 5-lipoxygenase (Homo sapiens). Entry: Cc1cc(=O)oc(C)c1C(=O)Oc1ccc2ccccc2c1 91.1

GET Activity where system = Polyunsaturated fatty acid 5-lipoxygenase (Homo sapiens) and item = Cc1ccc(Nc2nnc(-c3ccc4c(c3)OCO4)o2)c(C)c1 14

System Polyunsaturated fatty acid 5-lipoxygenase (Homo sapiens). Read-out Activity. Item O=C1NC(=O)C(CCC(=O)c2ccc3ccccc3c2)C(=O)N1 . Report value. 86.1

Give Activity only, for O=C1CCC(CCc2nc3ccccc3[nH]2)(c2ccccc2)C(=O)N1 (configuration not stated) , using Polyunsaturated fatty acid 5-lipoxygenase (Homo sapiens) data. 106

* * *

Molecular target: Prostaglandin E synthase (Homo sapiens) (UniProt O14684)
Sequence (whole entry): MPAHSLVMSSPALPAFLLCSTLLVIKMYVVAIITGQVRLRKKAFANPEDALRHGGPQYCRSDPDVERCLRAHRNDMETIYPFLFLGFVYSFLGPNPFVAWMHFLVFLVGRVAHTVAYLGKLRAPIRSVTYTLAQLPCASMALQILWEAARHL
Test: Inhibition of human mPGES-1 assessed as enzyme remaining activity at 10 uM relative to control
Parameter: Activity. Scope: all listed entries.
Please format your answer as a value with the unit trailing.

A selection of reference data follows.
O=C1c2ccccc2C(=O)N1CCc1nc(-c2ccccc2)c[nH]1	92.5%
O=C(c1nc2ccc(Cl)cc2nc1O)C(O)c1ccc2c(c1)OCO2 (centres undefined)	89.4%
CC1CCc2c(c(CC3CC(=O)NC(=O)C3)nn2-c2ccccc2)C1 (centres undefined)	89.6%

Now for the compound whose Activity we want.
Identify measured Activity associated with Cc1cc(=O)oc(C)c1C(=O)Oc1ccc2ccccc2c1 88.2%
